Provenance of the data: patent US20150329558A1

Molecular target: hERG potassium channel (Homo sapiens, UniProt Q12809)
Sequence (Q12809 whole entry): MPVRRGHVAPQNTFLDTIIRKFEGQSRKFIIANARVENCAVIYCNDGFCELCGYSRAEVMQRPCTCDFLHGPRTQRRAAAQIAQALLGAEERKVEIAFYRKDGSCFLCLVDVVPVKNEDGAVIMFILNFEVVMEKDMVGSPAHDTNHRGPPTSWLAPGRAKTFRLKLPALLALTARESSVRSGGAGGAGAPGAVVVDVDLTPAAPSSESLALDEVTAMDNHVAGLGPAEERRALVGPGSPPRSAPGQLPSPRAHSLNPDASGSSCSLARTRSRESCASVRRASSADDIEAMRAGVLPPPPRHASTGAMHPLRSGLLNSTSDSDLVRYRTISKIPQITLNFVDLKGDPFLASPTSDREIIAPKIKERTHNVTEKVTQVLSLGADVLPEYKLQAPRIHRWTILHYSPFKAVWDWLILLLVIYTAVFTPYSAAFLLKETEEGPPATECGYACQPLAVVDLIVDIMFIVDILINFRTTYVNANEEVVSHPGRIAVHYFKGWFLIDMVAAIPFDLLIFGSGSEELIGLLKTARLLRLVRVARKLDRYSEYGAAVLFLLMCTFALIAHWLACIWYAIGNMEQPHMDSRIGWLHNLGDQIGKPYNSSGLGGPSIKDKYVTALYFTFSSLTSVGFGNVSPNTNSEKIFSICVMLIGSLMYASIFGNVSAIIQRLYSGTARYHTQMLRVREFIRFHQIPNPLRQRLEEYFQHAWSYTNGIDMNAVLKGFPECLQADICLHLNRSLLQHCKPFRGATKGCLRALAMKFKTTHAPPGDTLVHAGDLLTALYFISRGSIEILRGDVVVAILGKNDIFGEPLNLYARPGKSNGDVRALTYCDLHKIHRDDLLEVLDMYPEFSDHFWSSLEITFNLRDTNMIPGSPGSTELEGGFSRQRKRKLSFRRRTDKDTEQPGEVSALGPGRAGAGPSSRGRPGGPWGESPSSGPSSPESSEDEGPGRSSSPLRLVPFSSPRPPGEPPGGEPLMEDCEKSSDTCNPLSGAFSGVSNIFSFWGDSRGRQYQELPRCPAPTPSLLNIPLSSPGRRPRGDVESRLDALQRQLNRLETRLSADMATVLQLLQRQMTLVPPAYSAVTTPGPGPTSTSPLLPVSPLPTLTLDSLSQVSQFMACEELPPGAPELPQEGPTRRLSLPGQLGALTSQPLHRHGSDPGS
Assay: hERG screening assay (PatchXpress, CHO cells)
Format: cell-based
Conditions: % inhibition at 1 μM
Items are presented alongside their recorded HERG*.
result.type: HERG* (%)

1) O=c1c2cc(-c3ccc(OC(F)(F)F)cc3)ccc2nnn1CCc1ccncn1 [II-17] ... 42
2) O=c1c2cc(-c3ccc(OC(F)(F)F)cc3)ccc2cnn1CCn1cccn1 [III-9] ... 37
3) O=c1c2cc(-c3ccc(OC(F)(F)F)cc3)ccc2cnn1CCOc1ncccn1 [III-28] ... 51
4) O=C1c2cc(-c3ccc(OC(F)(F)F)cc3)ccc2CCN1Cc1ncccn1 [IX-1] ... 17
5) COc1cc(OC)nc(Cn2ncc3ccc(-c4ccc(OC(F)(F)F)cc4)cc3c2=O)n1 [III-19] ... 23

----------
Items are presented alongside their recorded inhibition at 1 µM.
Molecular target: wild-type human cardiac sodium channel, hNav1.5 (late INa) (Homo sapiens)
Sequence (Q14524 whole entry): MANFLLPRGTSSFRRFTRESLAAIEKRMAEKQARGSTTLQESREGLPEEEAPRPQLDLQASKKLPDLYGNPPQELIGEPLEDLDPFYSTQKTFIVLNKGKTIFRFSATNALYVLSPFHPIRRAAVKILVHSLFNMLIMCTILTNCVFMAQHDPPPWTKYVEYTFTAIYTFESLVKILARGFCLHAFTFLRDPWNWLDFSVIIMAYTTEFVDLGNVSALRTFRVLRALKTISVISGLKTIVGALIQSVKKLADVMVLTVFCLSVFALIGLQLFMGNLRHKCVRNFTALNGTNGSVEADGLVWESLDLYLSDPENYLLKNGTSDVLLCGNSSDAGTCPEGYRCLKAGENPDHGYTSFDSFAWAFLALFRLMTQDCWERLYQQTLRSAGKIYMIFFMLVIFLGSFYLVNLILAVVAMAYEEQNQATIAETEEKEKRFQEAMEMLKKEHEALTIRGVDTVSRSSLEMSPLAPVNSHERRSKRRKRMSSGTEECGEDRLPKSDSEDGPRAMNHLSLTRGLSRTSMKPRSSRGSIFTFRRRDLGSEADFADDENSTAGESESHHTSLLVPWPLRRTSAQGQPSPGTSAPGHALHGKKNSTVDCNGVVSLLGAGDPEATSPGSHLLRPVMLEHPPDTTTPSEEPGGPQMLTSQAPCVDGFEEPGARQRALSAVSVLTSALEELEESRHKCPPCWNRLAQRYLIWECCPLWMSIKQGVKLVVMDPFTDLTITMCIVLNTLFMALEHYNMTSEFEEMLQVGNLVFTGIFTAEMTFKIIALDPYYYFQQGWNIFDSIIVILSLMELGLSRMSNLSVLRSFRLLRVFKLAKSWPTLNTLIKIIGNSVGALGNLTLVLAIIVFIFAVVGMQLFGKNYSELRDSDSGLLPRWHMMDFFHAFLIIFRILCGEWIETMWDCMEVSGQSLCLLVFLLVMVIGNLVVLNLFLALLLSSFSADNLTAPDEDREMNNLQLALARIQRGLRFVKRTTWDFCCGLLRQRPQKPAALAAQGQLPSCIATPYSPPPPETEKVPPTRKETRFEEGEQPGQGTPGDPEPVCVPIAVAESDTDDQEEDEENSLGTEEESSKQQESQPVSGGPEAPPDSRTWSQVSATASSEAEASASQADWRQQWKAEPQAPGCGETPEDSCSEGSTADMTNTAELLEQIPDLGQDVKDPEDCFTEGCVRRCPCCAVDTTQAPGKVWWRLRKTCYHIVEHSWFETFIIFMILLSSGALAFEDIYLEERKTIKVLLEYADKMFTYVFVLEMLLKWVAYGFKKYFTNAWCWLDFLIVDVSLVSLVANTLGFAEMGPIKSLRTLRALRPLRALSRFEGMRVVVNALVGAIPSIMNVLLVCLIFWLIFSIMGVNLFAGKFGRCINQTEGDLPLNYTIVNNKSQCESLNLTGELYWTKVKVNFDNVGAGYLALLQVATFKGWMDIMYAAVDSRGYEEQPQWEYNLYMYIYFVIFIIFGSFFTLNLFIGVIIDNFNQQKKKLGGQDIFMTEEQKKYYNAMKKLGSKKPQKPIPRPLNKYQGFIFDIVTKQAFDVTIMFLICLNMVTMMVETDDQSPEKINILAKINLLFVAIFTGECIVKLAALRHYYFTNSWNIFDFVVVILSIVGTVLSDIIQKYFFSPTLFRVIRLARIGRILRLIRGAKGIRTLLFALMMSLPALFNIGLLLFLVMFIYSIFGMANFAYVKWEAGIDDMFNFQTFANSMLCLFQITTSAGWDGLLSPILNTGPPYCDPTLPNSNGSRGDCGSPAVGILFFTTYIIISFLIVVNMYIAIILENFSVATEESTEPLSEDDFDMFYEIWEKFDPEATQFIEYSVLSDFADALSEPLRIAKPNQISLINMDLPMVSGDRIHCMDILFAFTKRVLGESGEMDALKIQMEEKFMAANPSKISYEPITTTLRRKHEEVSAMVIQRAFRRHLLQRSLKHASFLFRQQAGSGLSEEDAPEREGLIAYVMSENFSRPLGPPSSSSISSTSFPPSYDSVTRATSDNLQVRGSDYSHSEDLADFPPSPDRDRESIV
Assay: Late INa screening assay (QPatch whole cell patch clamp)
Assay type: cell-based
Details: percent block of late INa, compound at 1 μM, 10 μM Tefluthrin, HEK293 hNav1.5; read-out: Late INa 1 μM
result.type: inhibition at 1 µM (%)

1) O=c1c2cc(-c3ccc(OC(F)(F)F)cc3)ccc2cnn1CCn1cc(Br)cn1 ... 27
2) O=C1c2cc(C#Cc3ccc(OC(F)(F)F)cc3)ccc2CCN1Cc1ncccn1 ... 20
3) O=C(N1CCc2ccc(-c3ccc(C(F)(F)F)cc3)cc2C1)N1CC(O)C1 ... 30
4) O=C1c2cc(-c3ccc(C(F)(F)F)cc3)ccc2OCN1Cc1ccccn1 ... 52
5) O=C(N1CCc2ccc(-c3ccc(C(F)(F)F)cc3)cc2C1)N1CC(Oc2cccnc2)C1 ... 15

----------
Target: Human Nav1.2 (Homo sapiens)
Construct: expressed in transfected cells
Test: Nav1.2 use-dependent block, whole-cell voltage clamp
Type: cell-based
Conditions: use-dependent block 10 Hz, read-out: NAv1.2*-CHAN TEST-UDB-10 HZ-
result.type: inhibition at 1 µM (%)

1) O=C(c1cccnn1)N1CCc2ccc(-c3ccc(C(F)(F)F)cc3)cc2C1 [IX-17] ... 10.4
2) O=C1c2cc(-c3ccc(OC(F)(F)F)cc3)ccc2CCN1Cc1ncccn1 [IX-1] ... 3.8
3) O=C1c2cc(-c3ccc(C(F)(F)F)cc3)ccc2OCN1Cc1ccccn1 [VIII-1] ... 16
4) O=C1c2cc(-c3ccc(OC(F)(F)F)cc3)ccc2OCN1Cc1ncccn1 [VIII-20] ... 17.6
5) O=C1c2cc(-c3ccc(C(F)(F)F)cc3)ccc2CCN1Cc1ncccn1 [IX-3] ... -4.1

----------
Assay: Microsomal stability assay, rat
Format: in vitro ADME
Settings: metabolic stability, rat liver microsomes 0.5 mg/mL, substrate 3 uM
result.type: log10(MS Rat THalf) (log10 of the value in min)

1. Cc1noc(Cn2nnc3ccc(-c4ccc(C5CC5)cc4)cc3c2=O)n1 ... 1.46
2. O=c1c2cc(-c3ccc(OC(F)(F)F)cc3)ccc2cnn1Cc1ncc(Cl)cn1 ... 2.47
3. O=C1c2cc(-c3ccc(OC(F)(F)F)cc3)ccc2SCN1Cc1ncccn1 ... 2.14
4. N#Cc1cnc(OCCn2nnc3ccc(-c4ccc(OC(F)(F)F)cc4)cc3c2=O)nc1 ... 2.29
5. COc1cc(OC)nc(Cn2nnc3ccc(-c4ccc(OC(F)(F)F)cc4)cc3c2=O)n1 ... 1.99

----------
Biological target: wild-type human cardiac sodium channel, hNav1.5 (peak INa) (Homo sapiens, UniProt Q14524)
Test: Peak INa screening assay (tonic and use-dependent block)
Type: cell-based
Conditions: tonic block of peak INa, 0.1 Hz, 1 μM; read-out: Peak TB 1 μM
Items are presented alongside their recorded inhibition at 1 µM.
result.type: inhibition at 1 µM (%)

1. O=c1c2cc(-c3ccc(OC(F)(F)F)cc3)ccc2nnn1Cc1cc(-c2ccccn2)on1 ... 6
2. Cc1noc(Cn2nnc3ccc(-c4ccc(C5CC5)cc4)cc3c2=O)n1 ... 6
3. O=c1c2cc(-c3ccc(OC(F)(F)F)cc3)ccc2nnn1Cc1noc(C2CC2)n1 ... 7
4. O=c1c2cc(-c3ccc(Oc4ccc(Cl)cc4)cc3)ccc2nnn1CCn1cccn1 ... 44
5. O=C(Cc1ccccn1)N1CCc2ccc(-c3ccc(C(F)(F)F)cc3)cc2C1 ... 10

----------
Molecular target: wild-type human cardiac sodium channel, hNav1.5 (peak INa) (Homo sapiens)
Assay: Peak INa screening assay (tonic and use-dependent block)
Assay type: cell-based
Details: % inhibition at 1 μM, use-dependent block 3 Hz; read-out: NAv1.5*-PEAK-UDB-3 HZ-
Procedure: The late sodium current (Late INa) and peak sodium current (Peak INa) assays are performed on an automated electrophysiology platform, QPatch 16× (Sophion Bioscience, Copenhagen, Denmark), which uses the whole cell patch clamp technique to measure currents through the cell membrane of up to 16 cells at a time. […] Currents through open sodium channels are automatically recorded and stored in the Sophion Bioscience Oracle database (Sophion Bioscience, Copehagen, Denmark). […]
Binary call on inhibition at 1 µM: condition met from 20% upward, condition not met beneath that.

1) N#Cc1ccnc(OCCn2nnc3ccc(-c4ccc(OC(F)(F)F)cc4)cc3c2=O)n1 [II-36] ... condition not met
2) O=c1c2cc(-c3ccc(OC(F)(F)F)cc3)ccc2cnn1CCn1cccn1 [III-9] ... condition not met
3) C[C@@H]1CC[C@@H](C)N1C(=O)N1CCc2ccc(-c3ccc(C(F)(F)F)cc3)cc2C1 [IX-105] ... condition not met
4) O=C(c1ncccn1)N1CCc2ccc(-c3ccc(OC(F)(F)F)cc3)cc2C1 [IX-11] ... condition met
5) O=c1c2cc(-c3ccc(OC(F)(F)F)cc3)ccc2nnn1CCc1ccncn1 [II-17] ... condition not met

----------
Items are presented alongside their recorded inhibition at 1 µM.
Target: hNav1.1 (Homo sapiens, UniProt P35498)
Construct: expressed in transfected cells; host or cells: HEK293, transient transfection (α1:β1:β2 = 10:1:1)
Experiment: Nav1.1 use-dependent block, whole-cell voltage clamp
Assay type: cell-based
Details: use-dependent block 10 Hz, read-out: NAv1.1*-CHAN TEST-UDB-10 HZ-
result.type: inhibition at 1 µM (%)

1) O=C(c1cccnn1)N1CCc2ccc(-c3ccc(C(F)(F)F)cc3)cc2C1 ... 1.5
2) O=c1c2cc(-c3ccc(OC(F)(F)F)cc3)ccc2nnn1Cc1noc(C2CC2)n1 ... 19.5
3) N#Cc1ccnc(OCCn2nnc3ccc(-c4ccc(OC(F)(F)F)cc4)cc3c2=O)n1 ... 7.9
4) COc1cc(OC)nc(Cn2ncc3ccc(-c4ccc(OC(F)(F)F)cc4)cc3c2=O)n1 ... 19.3
5) O=C1c2cc(-c3ccc(C(F)(F)F)cc3)ccc2CCN1Cc1ncccn1 ... 2.9
6) Cn1cnc(C(=O)N2CCc3ccc(-c4ccc(C(F)(F)F)cc4)cc3C2)c1 ... 1.5
7) Cc1nc(Cn2cnc3ccc(-c4ccc(OC(F)(F)F)cc4)cc3c2=O)no1 ... -6.5
8) O=c1c2cc(-c3ccc(OC(F)(F)F)cc3)ccc2cnn1Cc1ncccn1 ... 9.3
9) O=c1c2cc(-c3ccc(OC(F)(F)F)cc3)ccc2nnn1C1CCNCC1 ... -1
10) O=C1c2cc(-c3ccc(OC(F)(F)F)cc3)ccc2OCN1Cc1ncccn1 ... 11
11) O=c1c2cc(-c3ccc(OC(F)(F)F)cc3)ccc2nnn1CCOc1ncccn1 ... 21
12) O=C1c2cc(-c3ccc(OC(F)(F)F)cc3)ccc2OCN1Cc1ccccn1 ... 3.1
13) Cc1noc(Cn2cnc3ccc(-c4ccc(OC(F)(F)F)cc4)cc3c2=O)n1 ... 3.1

----------
Biological target: wild-type human cardiac sodium channel, hNav1.5 (peak INa) (Homo sapiens)
Assay: Peak INa screening assay (tonic and use-dependent block)
Type: cell-based
Conditions: tonic block of peak INa, 0.1 Hz, 1 μM; read-out: Peak TB 1 μM
Binary call on inhibition at 1 µM: Condition met from 10% upward, Condition not met beneath that.

1) O=C1c2cc(-c3ccc(C(F)(F)F)cc3)ccc2SCN1Cc1ccccc1Cl [Compound X-5] ... Condition met
2) O=c1c2cc(-c3ccc(OC(F)(F)F)cc3)ccc2cnn1Cc1nccc(OCC2CC2)n1 [III-27] ... Condition met
3) O=c1c2cc(-c3ccc(OC(F)(F)F)cc3)ccc2nnn1CC1(CN2CCCC2)CC1 [II-63] ... Condition met
4) O=C1c2cc(-c3ccc(C(F)(F)F)cc3)ccc2SCN1Cc1ccccn1 [Compound X-3] ... Condition met
5) O=c1c2cc(-c3ccc(OC(F)(F)F)cc3)ccc2nnn1CC1(CN2CCOCC2)CC1 [II-40] ... Condition met
6) Cc1nc(Cn2nnc3ccc(-c4ccc(OC(F)(F)F)cc4)cc3c2=O)co1 [II-99] ... Condition not met
7) COc1cc(OC)nc(Cn2ncc3ccc(-c4ccc(OC(F)(F)F)cc4)cc3c2=O)n1 [III-19] ... Condition met
8) O=C(c1ccccn1)N1CCc2ccc(-c3ccc(C(F)(F)F)cc3)cc2C1 [IX-6] ... Condition met
9) O=c1c2cc(C#Cc3ccc(OC(F)(F)F)cc3)ccc2nnn1CCOc1ncccn1 [VII-1] ... Condition not met
10) N#Cc1ccnc(OCCn2nnc3ccc(-c4ccc(OC(F)(F)F)cc4)cc3c2=O)n1 [II-36] ... Condition not met
11) CC(Cn1ncc2ccc(-c3ccc(OC(F)(F)F)cc3)cc2c1=O)n1cccn1 (stereo not drawn) [III-38] ... Condition not met
12) Cc1cc(Cn2nnc3ccc(-c4ccc(OC(F)(F)F)cc4)cc3c2=O)no1 [II-26] ... Condition met
13) O=C1c2cc(-c3ccc(C(F)(F)F)cc3)ccc2OCN1Cc1ccccn1 [VIII-1] ... Condition met
14) O=c1c2cc(-c3ccc(OC(F)(F)F)cc3)ccc2nnn1CCOc1ncccn1 [II-32] ... Condition met
15) O=C(c1ncccn1)N1CCc2ccc(-c3ccc(C(F)(F)F)cc3)cc2C1 [IX-7] ... Condition met
16) O=C1c2cc(-c3ccc(OC(F)(F)F)cc3)ccc2SCN1Cc1ccccn1 [Compound X-1] ... Condition met
17) O=C1c2cc(-c3ccc(C(F)(F)F)cc3)ccc2SCN1Cc1ncccn1 [Compound X-4] ... Condition met
18) O=c1c2cc(-c3ccc(OC(F)(F)F)cc3)ccc2cnn1CCOc1cnccn1 [III-39] ... Condition not met
19) Cc1coc(Cn2nnc3ccc(-c4ccc(OC(F)(F)F)cc4)cc3c2=O)n1 [II-97] ... Condition met
20) O=C(c1ncccn1)N1CCc2ccc(-c3ccc(OC(F)(F)F)cc3)cc2C1 [IX-11] ... Condition met
21) O=c1c2cc(-c3ccc(OC(F)(F)F)cc3)ccc2nnn1Cc1coc(C2CC2)n1 [II-100] ... Condition met
22) O=c1c2cc(-c3ccc(OC(F)(F)F)cc3)ccc2nnn1CCc1ccncn1 [II-17] ... Condition met
23) O=c1c2cc(-c3ccc(OC(F)(F)F)cc3)ccc2nnn1Cc1ncccn1 [II-24] ... Condition met
24) Cc1cc(C)n(CC2(Cn3nnc4ccc(-c5ccc(OC(F)(F)F)cc5)cc4c3=O)CC2)n1 [II-64] ... Condition not met
25) Cc1noc(Cn2cnc3ccc(-c4ccc(OC(F)(F)F)cc4)cc3c2=O)n1 [IV-6] ... Condition met
26) Cc1cc(Cn2nnc3ccc(-c4ccc(OC(F)(F)F)cc4)cc3c2=O)on1 [II-25] ... Condition not met
27) O=c1c2cc(-c3ccc(OC(F)(F)F)cc3)ccc2nnn1Cc1ncc(Cl)cn1 [II-4] ... Condition not met
28) O=c1c2cc(-c3ccc(OC(F)(F)F)cc3)ccc2cnn1CCOc1ccccn1 [III-40] ... Condition not met
29) O=C(c1ncccc1F)N1CCc2ccc(-c3ccc(C(F)(F)F)cc3)cc2C1 [IX-25] ... Condition met
30) COc1ccnc(Cn2ncc3ccc(-c4ccc(OC(F)(F)F)cc4)cc3c2=O)n1 [III-30] ... Condition met
31) O=C1c2cc(-c3ccc(OC(F)(F)F)cc3)ccc2SCN1Cc1ncccc1F [Compound X-9] ... Condition met
32) Cc1noc(Cn2nnc3ccc(-c4ccc(OC(F)(F)F)cc4)cc3c2=O)n1 [II-3] ... Condition met
33) Cc1nccn1CC1(Cn2nnc3ccc(-c4ccc(OC(F)(F)F)cc4)cc3c2=O)CC1 [II-34] ... Condition met
